Measured pKi on h5-HT5A receptor (Homo sapiens, UniProt P47898) follows.
Sequence (P47898 whole entry): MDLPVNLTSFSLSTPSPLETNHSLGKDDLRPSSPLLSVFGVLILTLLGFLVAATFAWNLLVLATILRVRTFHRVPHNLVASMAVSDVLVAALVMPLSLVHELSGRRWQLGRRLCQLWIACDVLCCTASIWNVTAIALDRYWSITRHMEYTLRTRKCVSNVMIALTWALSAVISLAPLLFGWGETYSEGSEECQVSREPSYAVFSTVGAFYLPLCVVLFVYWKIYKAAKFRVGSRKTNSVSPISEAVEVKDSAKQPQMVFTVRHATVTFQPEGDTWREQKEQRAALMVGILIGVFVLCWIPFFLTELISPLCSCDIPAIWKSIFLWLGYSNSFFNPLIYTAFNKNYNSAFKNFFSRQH
pKi: −log10 of the molar value. Structures can show the parent of a compound that is named as a salt.

Here is how some compounds turned out for pKi.
COc1ccccc1CNC(=N)Nc1nc(-c2ccccn2)cs1 :: > 7.30
COc1ccccc1CNC(=N)Nc1nc(-c2ccccc2)c[nH]1 [Example 188, acetate] :: > 7.30
COc1cccc(OC)c1CNC(=N)Nc1nc2ccccc2[nH]1 [Example 182, diacetate] :: > 7.30
COc1ccccc1CNC(=N)Nc1nc(N2CCCCC2)cs1 :: < 6.30
COc1ccc(-c2csc(NC(=N)NCc3c(OC)cccc3OC)n2)cc1 :: > 7.30

Prompt: Param item = COc1cccc(OC)c1CNC(=N)Nc1nc(-c2ccc(NS(C)(=O)=O)cc2)cs1 [Example 71, hydrobromide] ; retrieve measured pKi.
Response: > 7.30

Prompt: Try the compound COc1cccc(OC)c1CNC(=N)Nc1nc2c(s1)Cc1ccccc1-2 [Example 80, hydrobromide]
Response: > 7.30

Prompt: Try the compound COc1cccc(OC)c1CNC(=N)Nc1nc(-c2ncccc2Cl)cs1
Response: > 7.30

Prompt: Try the compound CC(=O)Nc1cccc(OCCCNC(=N)Nc2nccs2)c1
Response: < 6.30

###

Measured Ki on h5-HT5A receptor (Homo sapiens, UniProt P47898) follows.
Counter-ions that a name gives are not always drawn.

COc1ccccc1CNC(=N)Nc1nnc(-c2ccccc2)s1 [Example 175, acetate] :: > 500 nM
COc1cccc(OC)c1CNC(=N)Nc1nc(-c2ccc(F)c(F)c2)cs1 [Example 87, hydrobromide] :: < 50 nM
COc1ccc(F)cc1CNC(=N)Nc1nc(C)cs1 [Example 130, fumarate] :: 50 to 500 nM
COc1cccc(OC)c1CNC(=N)Nc1nc(-c2ccc(N3CCCC3)cc2)cs1 [Example 63, hydrobromide] :: < 50 nM
N=C(NCc1cccc(Cl)c1)Nc1nccs1 [Example 13, hydrochloride] :: > 500 nM

Prompt: Param item = COc1cccc(C)c1CNC(=N)Nc1nc(-c2ccc(Cl)cn2)cs1 ; retrieve measured Ki.
Response: > 500 nM

###

Measured pKi on h5-HT5A receptor (Homo sapiens, UniProt P47898) follows.
pKi: −log10 of the molar value. Where a name gives a salt, the structure may show the parent alone.

Here is how some compounds turned out for pKi.
COc1ccccc1CNC(=N)Nc1nc2ccccc2[nH]1 [Example 93, acetate] :: > 7.30
COc1ccccc1CNC(=N)Nc1n[nH]cc1-c1ccccc1 :: < 6.30
COc1cccc(OC)c1CNC(=N)Nc1nc(C2CCCN2)cs1 (stereo not drawn) [Example 147, hydrochloride] :: > 7.30

Prompt: Param item = COc1cccc(OC)c1CNC(=N)Nc1nc2c(s1)CCCC2 [Example 94, acetate] ; retrieve measured pKi.
Response: > 7.30

Prompt: Try the compound COc1cccc(C)c1CNC(=N)Nc1nc(-c2ncccn2)cs1
Response: > 7.30

Prompt: Try the compound N=C(NCc1ccccc1Cl)Nc1nccs1 [Example 7, hydrochloride]
Response: < 6.30

Prompt: Try the compound COc1ccccc1CNC(=N)Nc1nc(-c2ccccc2)cs1
Response: 6.30 to 7.30

Prompt: Try the compound COc1ccccc1CNC(=N)Nc1nc2ccccc2n1C
Response: 6.30 to 7.30

Prompt: Try the compound COc1ccccc1CNC(=N)Nc1nc(-c2ccc(F)cc2)co1
Response: > 7.30

###

- TARGET_ENTITY: h5-HT5A receptor (Homo sapiens)
Counter-ions that a name gives are not always drawn.
METRIC_NAME: Ki

Here is how some compounds turned out for Ki.
COc1cccc(OC)c1CNC(=N)Nc1nc(-c2ccc(F)cn2)cs1 [Example 144] :: < 50 nM
COc1cccc(OC)c1CNC(=N)Nc1nc(-c2ccccc2C(F)(F)F)cs1 [Example 84, hydrobromide] :: < 50 nM
COc1cccc(OC)c1CNC(=N)Nc1nc(-c2csc3ccccc23)cs1 [Example 96, hydrobromide] :: < 50 nM
COc1cccc(OC)c1CNC(=N)Nc1nc(C(=O)NC(C)C)cs1 [Example 196] :: < 50 nM
COc1cccc(OC)c1CNC(=N)Nc1nc(-c2ccc3c(c2)CCO3)cs1 [Example 115] :: < 50 nM

Prompt: Param item = COc1ccccc1CNC(=N)Nc1cc(-c2ccc(C)cc2)[nH]n1 [Example 206] ; retrieve measured Ki.
Response: < 50 nM

Prompt: Try the compound CCOc1ccc2nc(NC(=N)NCc3ccccc3OC)sc2c1 [Example 170, fumarate]
Response: 50 to 500 nM

Prompt: Try the compound COc1ccccc1CNC(=N)Nc1ccsc1 [Example 30, acetate]
Response: 50 to 500 nM

Prompt: Try the compound COc1cccc(Cl)c1CNC(=N)Nc1nc(-c2ccccn2)cs1 [Example 133]
Response: < 50 nM

###

pKi: −log10 of the molar value. Counter-ions that a name gives are not always drawn.
Measured pKi on h5-HT5A receptor (Homo sapiens, UniProt P47898) follows.

Here is how some compounds turned out for pKi.
COc1cccc(Cl)c1CNC(=N)Nc1nc(-c2ncc(F)cc2F)cs1 :: > 7.30
N=C(NCc1ccccc1OCc1ccccc1)Nc1nccs1 :: 6.30 to 7.30
COc1cccc(OC)c1CNC(=N)Nc1nc(CN(C)C)cs1 [Example 158, acetate] :: > 7.30
COc1cccc(OC)c1CNC(=N)Nc1nc(C2CCNCC2)cs1 [Example 162, hydrochloride] :: > 7.30
COc1cccc(OC)c1CNC(=N)Nc1nc(-c2ccccc2F)cs1 [Example 70, hydrobromide] :: > 7.30
COc1cccc(OC)c1CNC(=N)Nc1nc(-c2ccc(F)cc2F)cs1 [Example 91, hydrobromide] :: > 7.30

Prompt: Param item = COc1cccc(OC)c1CNC(=N)Nc1nc(-c2ccc(N3CCOCC3)cc2)cs1 [Example 65, hydrobromide] ; retrieve measured pKi.
Response: > 7.30

Prompt: Try the compound COc1ccc(F)cc1-c1csc(NC(=N)NCc2c(OC)cccc2OC)n1 [Example 112, hydrobromide]
Response: > 7.30

Prompt: Try the compound COc1ccccc1CNC(=N)Nc1nc(-c2ccncc2)cs1
Response: > 7.30

Prompt: Try the compound COc1cccc(OC)c1CNC(=N)Nc1nc(-c2cccnc2)cs1 [Example 50, acetate]
Response: > 7.30

Prompt: Try the compound COc1cccc(OC)c1CNC(=N)Nc1nnc(-c2ccccc2)s1
Response: 6.30 to 7.30

Prompt: Try the compound COc1cccc(OC)c1CNC(=N)Nc1nc(C(=O)NCc2ccccc2)cs1
Response: > 7.30

###

- TARGET_ENTITY: h5-HT5A receptor (Homo sapiens)
pKi: −log10 of the molar value. Where a name gives a salt, the structure may show the parent alone.
METRIC_NAME: pKi

Here is how some compounds turned out for pKi.
COc1cccc(OC)c1CNC(=N)Nc1n[nH]cc1-c1ccccc1 :: < 6.30
COc1cccc(OC)c1CNC(=N)Nc1nc(-c2nc3ccccc3s2)cs1 [Example 88, hydrobromide] :: > 7.30

Prompt: Param item = COc1cccc(OC)c1CNC(=N)Nc1nc(-c2ccc(S(C)(=O)=O)cc2)cs1 [Example 82, hydrobromide] ; retrieve measured pKi.
Response: 6.30 to 7.30

Prompt: Try the compound COc1cccc(OC)c1CNC(=N)Nc1nc(Cc2ccc(F)cc2)cs1
Response: > 7.30

Prompt: Try the compound COc1ccccc1CNC(=N)Nc1ccn(-c2ccccc2)n1
Response: > 7.30

Prompt: Try the compound COc1cccc(OC)c1CNC(=N)Nc1nc(-c2cc(-c3ccccc3)no2)cs1 [Example 83, hydrobromide]
Response: > 7.30

Prompt: Try the compound COc1cccc(OC)c1CNC(=N)Nc1nc(-c2c(Cl)cccc2Cl)cs1
Response: > 7.30

Prompt: Try the compound COc1cccc(OC)c1CNC(=N)Nc1nc2c(s1)CNCC2
Response: > 7.30

###

Measured Ki on h5-HT5A receptor (Homo sapiens, UniProt P47898) follows.
Where a name gives a salt, the structure may show the parent alone.

Here is how some molecules turned out for Ki.
COc1cccc(Cl)c1CNC(=N)Nc1nccs1 [Example 6, hydrochloride] :: < 50 nM
CCOC(=O)c1csc(NC(=N)NCc2c(OC)cccc2OC)n1 [Example 192, acetate] :: < 50 nM
COc1cccc(OC)c1CNC(=N)Nc1nc(C2CCCN2C)cs1 (centres unmarked) [Example 149] :: < 50 nM
COc1cccc(OC)c1CNC(=N)Nc1nc(-c2ccc(C#N)cc2)cs1 [Example 60] :: < 50 nM

Prompt: Param item = COc1cccc(OC)c1CNC(=N)Nc1nc(-c2ccc(F)cc2)cs1 [Example 56] ; retrieve measured Ki.
Response: < 50 nM

###

- TARGET_ENTITY: h5-HT5A receptor (Homo sapiens)
- Construct: expressed in transfected cells; host or cells: HEK293
- ASSAY_COMMENT: [3H]5-CT binding assay h5-HT5A
- CONDITION_SET: membranes from HEK293 cells expressing h5-HT5A, 2.5 nM [3H]5-CT; read-out: Binding affinity 5-HT5A (Ki)
Where a name gives a salt, the structure may show the parent alone.
METRIC_NAME: Ki

COc1ccccc1CNC(=N)Nc1cc(-c2ccc(Cl)cc2)[nH]n1 :: < 50 nM
COc1cccc(OC)c1CNC(=N)Nc1nc(-c2ccc(Cl)s2)cs1 [Example 77, hydrobromide] :: < 50 nM
COc1cccc(OC)c1CNC(=N)Nc1nc(C2CCN(S(C)(=O)=O)CC2)cs1 :: < 50 nM

Prompt: Param item = COc1ccccc1CNC(=N)Nc1n[nH]c2ccccc12 [Example 179, acetate] ; retrieve measured Ki.
Response: < 50 nM

Prompt: Try the molecule COc1cccc(OC)c1CNC(=N)Nc1nc(C2CCCN2C(=O)OC(C)(C)C)cs1 (stereo not drawn)
Response: 50 to 500 nM

Prompt: Try the molecule COc1ccc(-c2cc(NC(=N)NCc3c(OC)cccc3OC)n[nH]2)cc1
Response: < 50 nM

Prompt: Try the molecule COc1cccc(OC)c1CNC(=N)Nc1nc(-c2ccc(C)cc2)cs1
Response: < 50 nM

Prompt: Try the molecule COc1ccccc1CNC(=N)Nc1nnc[nH]1 [Example 184, acetate]
Response: > 500 nM
